Origin of measurements: ChEMBL document CHEMBL1132376

- study_system: Retinoic acid receptor beta (Homo sapiens, UniProt P10826)
- Sequence (P10826 whole entry): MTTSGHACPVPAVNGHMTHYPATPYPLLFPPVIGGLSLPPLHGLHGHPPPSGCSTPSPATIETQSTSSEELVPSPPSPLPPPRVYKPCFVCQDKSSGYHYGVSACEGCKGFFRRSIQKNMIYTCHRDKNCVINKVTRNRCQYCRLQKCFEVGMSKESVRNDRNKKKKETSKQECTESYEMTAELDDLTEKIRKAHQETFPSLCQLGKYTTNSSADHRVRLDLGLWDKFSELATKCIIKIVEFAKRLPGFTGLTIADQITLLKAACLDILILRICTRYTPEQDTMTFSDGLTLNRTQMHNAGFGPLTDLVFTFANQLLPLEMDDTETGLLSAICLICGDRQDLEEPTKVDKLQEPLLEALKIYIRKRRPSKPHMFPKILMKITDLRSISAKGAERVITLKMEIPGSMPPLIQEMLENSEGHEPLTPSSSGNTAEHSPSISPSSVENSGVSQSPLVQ
- assay_method_text: Transcriptional activation in CV-1 cells expressing Retinoic acid receptor RAR beta
pEC50: −log10 of the molar value.
attribute_measured: pEC50

chemical_string: CCOC(=O)c1ccc(OC(=O)c2ccc3c(c2)C(C)(C)CCN3C(C)C)cc1
attribute_measured: pEC50
endpoint_value: 7.39

I = CCOC(=O)c1ccc(OC(=O)c2cc3c(cc2C)N(C)CCC3(C)C)cc1
II = CCOC(=O)c1ccc(OC(=O)c2ccc3c(c2)C(C)(C)CCN3C)cc1
**Q:** // compare measured pEC50, left I , right II , return larger Reply briefly: the label of your chosen item.
**A:** I
(I: 7.04, II: 6.59)
